- Measured on: Ubiquitin-activating enzyme e1, putative (Leishmania donovani (strain BPK282A1)) (UniProt E9BSI1)
- Sequence (E9BSI1 as listed by the source): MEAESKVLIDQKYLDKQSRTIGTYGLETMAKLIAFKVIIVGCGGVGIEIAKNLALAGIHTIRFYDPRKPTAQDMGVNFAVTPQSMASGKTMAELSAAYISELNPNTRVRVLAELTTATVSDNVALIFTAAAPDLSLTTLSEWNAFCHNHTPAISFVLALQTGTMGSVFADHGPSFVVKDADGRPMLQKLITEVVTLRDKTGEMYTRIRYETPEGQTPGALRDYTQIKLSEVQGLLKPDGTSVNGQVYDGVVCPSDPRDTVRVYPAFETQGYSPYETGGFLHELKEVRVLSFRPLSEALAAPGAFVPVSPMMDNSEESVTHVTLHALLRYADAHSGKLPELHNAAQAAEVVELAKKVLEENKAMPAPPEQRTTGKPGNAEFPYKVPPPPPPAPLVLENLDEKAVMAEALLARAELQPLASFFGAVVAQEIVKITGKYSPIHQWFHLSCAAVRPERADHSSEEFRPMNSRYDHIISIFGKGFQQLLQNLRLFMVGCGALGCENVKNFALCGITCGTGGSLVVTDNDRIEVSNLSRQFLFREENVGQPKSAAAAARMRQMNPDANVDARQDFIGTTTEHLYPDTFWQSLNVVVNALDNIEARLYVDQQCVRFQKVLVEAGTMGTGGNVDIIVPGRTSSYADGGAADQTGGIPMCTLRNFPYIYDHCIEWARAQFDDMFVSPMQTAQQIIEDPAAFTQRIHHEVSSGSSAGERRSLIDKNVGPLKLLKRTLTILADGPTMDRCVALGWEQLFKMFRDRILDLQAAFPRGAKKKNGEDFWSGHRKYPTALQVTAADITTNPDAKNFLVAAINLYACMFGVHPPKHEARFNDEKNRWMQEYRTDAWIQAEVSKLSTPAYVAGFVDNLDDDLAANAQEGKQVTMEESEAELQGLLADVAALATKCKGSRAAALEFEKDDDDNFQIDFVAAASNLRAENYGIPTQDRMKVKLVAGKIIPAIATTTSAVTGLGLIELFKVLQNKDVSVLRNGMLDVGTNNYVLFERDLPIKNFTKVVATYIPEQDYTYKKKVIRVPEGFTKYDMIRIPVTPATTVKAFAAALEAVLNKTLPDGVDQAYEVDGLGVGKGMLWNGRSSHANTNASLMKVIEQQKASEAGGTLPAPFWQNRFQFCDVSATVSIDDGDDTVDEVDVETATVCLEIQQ
- Assay explanation: Leishmania donovani Ubiquitin Activating Enzyme (LdE1)
- Type: functional
- Parameters: scale not given: direction of the effect not stated beside the values
- Experimental setup: 30 µM
Potency and affinity values are given separately.
Entries annotated with measured Percent Effect
The reply should be a number in %, with the unit left off.

// solved cases for Percent Effect follow
COCCN1C[C@H]2[C@@H](C1)N(Cc1ccc(C)o1)CC[C@H]2OC
-30.1
Cc1cc(CN2CCCC2c2noc(C)n2)no1 (stereo unspecified)
2.67
Cc1nn(C)c2c(N3CCN(C(=O)NC4CCCCC4)CC3)ncnc12
9.33

Entry Cc1n[nH]c(C2CN(C(=O)Cn3ccccc3=O)CCO2)n1 (stereo unspecified) has what Percent Effect?
1.27

Entry `CCSc1cc(C(=O)NCc2ccccc2O)ccn1` has what Percent Effect?
0

Entry Cc1nc(C2CCCN2CCCS(=O)(=O)N(C)C)no1 (stereo unspecified) has what Percent Effect?
28.9

====

- Measured on: Sialic acid-binding Ig-like lectin 9 (Homo sapiens) (UniProt Q9Y336)
- Sequence (Q9Y336 whole entry): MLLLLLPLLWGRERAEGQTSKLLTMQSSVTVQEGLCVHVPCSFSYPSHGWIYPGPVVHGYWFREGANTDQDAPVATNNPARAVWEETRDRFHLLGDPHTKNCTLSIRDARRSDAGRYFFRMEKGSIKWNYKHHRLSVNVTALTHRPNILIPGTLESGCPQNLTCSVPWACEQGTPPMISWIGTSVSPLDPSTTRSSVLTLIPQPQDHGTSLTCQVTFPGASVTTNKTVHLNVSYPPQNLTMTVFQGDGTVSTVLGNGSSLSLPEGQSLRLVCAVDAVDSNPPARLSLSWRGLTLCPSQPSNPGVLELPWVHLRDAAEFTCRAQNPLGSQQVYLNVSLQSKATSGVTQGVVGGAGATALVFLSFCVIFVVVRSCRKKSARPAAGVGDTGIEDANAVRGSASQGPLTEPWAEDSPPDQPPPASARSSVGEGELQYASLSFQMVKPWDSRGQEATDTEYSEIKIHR
- Assay explanation: Hs-Siglec9 ALPHAscreen SOP 20170721
- Set-up: scale not given: direction of the effect not stated beside the values
- Experimental setup: 10 µM
Entries annotated with measured Percent Effect
The reply should be a number in %, with the unit left off.

// solved cases for Percent Effect follow
CCC(NC(N)=O)c1ccccc1OCC(=O)N1CCCC1 (stereo not given)
-13.8
Cn1nc2c(cc1=O)CN(Cc1nnc(C3CC3)o1)CC2
-13.6
CCNC(=O)CCc1c(C)nc2cc(O)nn2c1C
4.55

Entry O=C(CCCNc1ncccn1)N1CCCC(n2cccn2)C1 (stereo not given) has what Percent Effect?
-1.81

Entry CC(=O)NC1CCCN(C(=O)c2ccc(Br)cc2O)C1 (stereo not given) has what Percent Effect?
7.98

Entry CS(=O)(=O)NCC1CCCN(C(=O)Nc2ccccc2Cl)C1 (stereo not given) has what Percent Effect?
0.518

Entry CCc1nc(C2CCCN2C(=O)CCn2cncn2)no1 (stereo not given) has what Percent Effect?
9.32

Entry NC(=O)c1cc(C2CCCN(CCc3ccccn3)C2)n[nH]1 (stereo not given) has what Percent Effect?
-3.53

Entry `Cc1c(F)cc(C(=O)O)cc1S(=O)(=O)Nc1ccc2c(c1)OCCO2` has what Percent Effect?
0.878

Entry Cn1nnc2c1CCN(Cc1nccs1)C2COCc1ccccc1 (stereo not given) has what Percent Effect?
5.81

Entry COc1ccc(C(CO)NC(=O)Nc2cccc(C#N)c2)cc1 (stereo not given) has what Percent Effect?
19.4

Entry `CCC(=O)N(C)CC(=O)Nc1ccc(Br)cn1` has what Percent Effect?
0.577

Entry COCc1cccc(C(=O)N2CCCCC2c2nccs2)c1 (stereo not given) has what Percent Effect?
-4.58

====

- Measured on: Tyrosyl-tRNA synthetase, putative (Trypanosoma cruzi (strain CL Brener)) (UniProt Q4DSP6)
- Sequence (Q4DSP6 as listed by the source): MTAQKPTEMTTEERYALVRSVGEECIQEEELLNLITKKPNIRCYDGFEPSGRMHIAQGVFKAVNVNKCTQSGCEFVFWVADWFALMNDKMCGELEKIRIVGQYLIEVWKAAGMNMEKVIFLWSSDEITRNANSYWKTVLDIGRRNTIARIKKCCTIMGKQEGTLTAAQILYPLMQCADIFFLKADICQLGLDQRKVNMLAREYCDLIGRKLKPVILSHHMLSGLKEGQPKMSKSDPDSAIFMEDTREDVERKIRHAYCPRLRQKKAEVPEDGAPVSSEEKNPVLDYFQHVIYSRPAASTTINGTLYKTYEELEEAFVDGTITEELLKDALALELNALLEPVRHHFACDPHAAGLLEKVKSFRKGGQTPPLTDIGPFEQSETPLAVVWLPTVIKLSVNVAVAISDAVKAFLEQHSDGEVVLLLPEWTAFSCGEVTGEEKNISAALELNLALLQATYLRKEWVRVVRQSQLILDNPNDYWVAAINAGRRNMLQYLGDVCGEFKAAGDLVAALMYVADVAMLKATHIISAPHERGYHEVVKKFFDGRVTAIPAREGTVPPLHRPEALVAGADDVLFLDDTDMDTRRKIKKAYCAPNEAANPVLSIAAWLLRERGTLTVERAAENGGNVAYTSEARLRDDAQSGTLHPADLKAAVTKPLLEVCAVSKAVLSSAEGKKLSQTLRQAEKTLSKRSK
- Assay explanation: Trypanosoma cruzi tyrosyl tRNA synthetase (TcYRS) _High Tyrosine SOP; note: in the data most compounds retested in dose-response had high values
- Assay type: functional
- Set-up: scale not given: direction of the effect not stated beside the values
- Experimental setup: 30 µM
Entries annotated with measured Percent Effect
The reply should be a number in %, with the unit left off.

// solved cases for Percent Effect follow
CCN1CC2(CC1=O)CN(Cc1cccs1)CCN(C(=O)C(C)C)C2 (stereo unspecified)
4.95
CC(C)c1nc(C2CCCN(Cc3nnc(C4CC4)o3)C2)no1 (stereo unspecified)
-1.58
COCCC(=O)N1CC[C@@H](N(C)C)[C@@H]1Cc1ccccc1
5.32
CCS(=O)(=O)CC(=O)NC(c1ccc(F)cc1)C1CCCC1 (stereo unspecified)
3.19
COc1ccc(CCC(=O)Nc2cccnc2N2CCCC2)cc1Br
5.42

Kindly review the next compound as well.
Entry CN(Cc1cnn(C)c1)C(=O)NC1CCC(O)CC1 (stereo unspecified) has what Percent Effect?
0
